molecular target: RASA1-N SH2 domain (Homo sapiens); assay: FP saturation binding assay
No end group written: not given here.
QUANTITY KIND: pKd
Scale: negative log10 of molar concentration, which is what pKd denotes.

Challenge: Name the reported pKd value associated with the sequence FDNLYYWDQDPPD [ErbB2 Y1221 (non-phospho)]
Response given: 5.43

* * *

Task for the reader: assign each of the following compounds its reported pKd.
Target: RASA1-N SH2 domain (Homo sapiens, UniProt P20936)
Sequence (P20936 181-272 limits assumed): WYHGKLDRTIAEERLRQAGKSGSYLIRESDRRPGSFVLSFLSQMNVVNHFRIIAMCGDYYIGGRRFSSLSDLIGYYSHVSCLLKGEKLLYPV
Residues, ends and D or L forms follow the SMILES beside them.
Scale: negative log10 of molar concentration, which is what pKd denotes.

Challenge: Name the reported pKd value associated with the compound CC(C)C[C@H](NC(=O)[C@H](Cc1ccc(OP(=O)(O)O)cc1)NC(=O)[C@H](CCC(=O)O)NC(=O)[C@H](CCC(N)=O)NC(=O)[C@H](CCCCN)NC(=O)[C@@H]1CCCN1)C(=O)N[C@@H](CC(N)=O)C(=O)N1CCC[C@H]1C(=O)N[C@H](C(=O)N[C@@H](CCC(=O)O)C(=O)N[C@@H](CCC(=O)O)C(=O)N[C@@H](CC(N)=O)C(=O)N[C@@H](CC(=O)O)C(=O)O)C(C)C [ErbB4 1162 13-mer] (HELM PEPTIDE1{P.K.Q.E.[O=C([C@H](Cc1ccc(OP(=O)(O)O)cc1)N[*:1])[*:2]].L.N.P.V.E.E.N.D}$$$$V2.0)
Response given: 5.54

Challenge: Name the reported pKd value associated with the compound CSCC[C@H](NC(=O)[C@H](CC(C)C)NC(=O)[C@H](C)NC(=O)[C@H](CCCNC(=N)N)NC(=O)[C@H](Cc1ccc(OP(=O)(O)O)cc1)NC(=O)[C@H](Cc1ccccc1)NC(=O)[C@H](CC(N)=O)NC(=O)[C@H](CO)NC(=O)[C@@H](N)CC(=O)O)C(=O)N[C@@H](CC(=O)O)C(=O)N[C@@H](CCC(=O)O)C(=O)N[C@@H](CCC(=O)O)C(=O)N[C@@H](CC(=O)O)C(=O)O [ErbB1 998 13-mer] (HELM PEPTIDE1{D.S.N.F.[O=C([C@H](Cc1ccc(OP(=O)(O)O)cc1)N[*:1])[*:2]].R.A.L.M.D.E.E.D}$$$$V2.0)
Response given: 5.55

Challenge: Name the reported pKd value associated with the compound CC(C)C[C@H](NC(=O)[C@H](Cc1ccc(OP(=O)(O)O)cc1)NC(=O)[C@H](CCC(=O)O)NC(=O)[C@@H]1CCCN1C(=O)[C@H](CC(N)=O)NC(=O)[C@@H](N)CCC(=O)O)C(=O)N[C@H](C(=O)N1CCC[C@H]1C(=O)N[C@@H](CCC(N)=O)C(=O)NCC(=O)NCC(=O)N[C@@H](C)C(=O)N[C@@H](CC(=O)O)C(=O)O)[C@@H](C)O
Response given: 5.73
